- Test system: Hek293T
- Experiment summary: Primary qHTS to identify gynecologic anti-cancer compounds using libraries of approved drugs and bioactive compounds (AID 1345084); note: nearly all actives have a fitted effect of over 55% in size; for activity change, negative = cytotoxicity: % is set by controls: 0 for no effect and ±100 for the full control effect
- Setup conditions: Gynecologic cancer cell panel viability, ATPlite luminescence, 48 h, control line for the selectivity index; series mostly up to 57.5 µM
Results filed as inconclusive are left out. Active and inactive are the calls of the source. Calls come from the whole dose curve; as a rule, active = well fitted cell-killing curve with a large enough effect; inconclusive = small, poorly fitted or top-dose-only effect, or effect the other way; inactive = flat fitted curve, though single readings scatter.
I'd appreciate it if you could supply activity change, negative = cytotoxicity values for the items below.

Would you please look over these solved cases?
>  <Compound>
CC1(C)CC[C@]2(C(=O)OC3OC(CO)C(O)C(O)C3O)CC[C@]3(C)C(=CCC4[C@@]5(C)CC[C@H](OC6OC(C(=O)O)C(O)C(OC7OC(CO)C(O)C(O)C7O)C6O)C(C)(C)C5CC[C@]43C)C2C1 (stereo partly specified)

>  <activity change, negative = cytotoxicity>
0.993% [at 11.6 µM] (inactive)

$$$$
>  <Compound>
C[C@@H]1O[C@@H](O[C@H]2[C@H](OC(=O)[C@]34CCC(C)(C)C[C@H]3C3=CCC5[C@@]6(C)C[C@H](O)[C@H](O[C@@H]7O[C@H](CO)[C@@H](O)[C@H](O)[C@H]7O)[C@@](C)(CO)C6[C@H](O)C[C@@]5(C)[C@]3(C)CC4)OC[C@H](O)[C@@H]2O)[C@H](O)[C@H](O)[C@H]1O[C@@H]1OC[C@@H](O)[C@H](O[C@@H]2OC[C@](O)(CO)[C@H]2O)[C@H]1O (stereo partly specified)

>  <activity change, negative = cytotoxicity>
3.42% [at 6.55 µM] (inactive)

$$$$
>  <Compound>
C[C@@H]1O[C@@H](O[C@H]2[C@H](O)[C@@H](O[C@@H]3O[C@H](CO)[C@@H](O)[C@H](O[C@@H]4O[C@H](CO)[C@@H](O)[C@H](O)[C@H]4O)[C@H]3O)[C@H](O[C@H]3CC[C@@]4(C)C(=CC[C@@H]5C4CC[C@@]4(C)C5C[C@@H]5OC6(CC[C@@](C)(CO[C@@H]7O[C@H](CO)[C@@H](O)[C@H](O)[C@H]7O)O6)[C@@H](C)[C@@H]54)C3)O[C@@H]2CO)[C@H](O)[C@H](O)[C@H]1O (stereo partly specified)

>  <activity change, negative = cytotoxicity>
9.02% [at 6.55 µM] (inactive)

$$$$
>  <Compound>
CC1(C)CC[C@]2(C(=O)O[C@@H]3O[C@H](CO)[C@@H](O)[C@H](O)[C@H]3O)CC[C@]3(C)C(=CCC4[C@@]5(C)CC[C@H](O[C@@H]6O[C@H](C(=O)O)[C@@H](O)[C@H](O)[C@H]6O)C(C)(C)C5CC[C@]43C)C2C1 (stereo partly specified)

>  <activity change, negative = cytotoxicity>
5.45% [at 11.6 µM] (inactive)

$$$$
>  <Compound>
CC1OC(OCC2OC(OC3CCC4(C)C(CCC5(C)C4CC=C4C6CC(C)(C)CCC6(C(=O)OC6OC(CO)C(O)C(O)C6O)CCC45C)C3(C)CO)C(O)C(O)C2O)C(O)C(O)C1O (stereo unspecified)

>  <activity change, negative = cytotoxicity>
-5.88% [at 11.6 µM] (inactive)

$$$$

query: Look up activity change, negative = cytotoxicity: C[C@@H]1O[C@@H](O[C@H]2[C@H](OC(=O)[C@]34CCC(C)(C)C[C@H]3C3=CCC5[C@@]6(C)CC[C@H](O[C@@H]7O[C@H](C(=O)O)[C@@H](O)[C@H](O)[C@H]7O[C@@H]7O[C@H](CO)[C@H](O)[C@H](O)[C@H]7O)[C@@](C)(C=O)C6CC[C@@]5(C)[C@]3(C)C[C@H]4O)O[C@H](C)[C@H](O[C@@H]3O[C@H](C)[C@H](O)[C@H](O)[C@H]3O)[C@@H]2O)[C@H](O)[C@H](O)[C@H]1O[C@@H]1OC[C@@H](O)[C@H](O[C@@H]2O[C@H](CO)[C@@H](O)[C@H](O)[C@H]2O)[C@H]1O (stereo partly specified)
result: 8.68% [at 6.55 µM] (inactive)

====

- System: CAOV3
- Experiment summary: Primary qHTS to identify gynecologic anti-cancer compounds using libraries of approved drugs and bioactive compounds (AID 1345084); note: nearly all actives have a fitted effect of over 55% in size
- Setup conditions: Gynecologic cancer cell panel viability, ATPlite luminescence, 48 h; series mostly up to 57.5 µM
- Excerpt: National Center for Advancing Translational Sciences [NCATS] Assay Overview: Chemotherapeutic drug responses vary from cancer to cancer and from patient to patient. […] ATPlite is a luminescence based assay reliant on the conversion of a luciferase substrate to light in the presence of ATP. As a cytotoxic compound will suppress growth and decrease the number of cells, the concentration of ATP will decrease, and less light signal will be detected in the well. […]
Records with an inconclusive call do not appear. Calls of active or inactive are those of the source. Calls come from the whole dose curve; as a rule, active = well fitted cell-killing curve with a large enough effect; inconclusive = small, poorly fitted or top-dose-only effect, or effect the other way; inactive = flat fitted curve, though single readings scatter.
Allowed answers: yes = active, no = inactive

The examples below pair each entry with its known result.
>  <Molecule>
COC1C(CO)OC(n2cnc3c(=O)[nH]cnc32)C1O (centres undefined)

>  <Cat>
no

$$$$
>  <Molecule>
COC(C(=O)N1Cc2[nH]nc(NC(=O)c3ccc(N4CCN(C)CC4)cc3)c2C1)c1ccccc1 (centres undefined)

>  <Cat>
yes

$$$$
>  <Molecule>
C=C1C(=O)O[C@@H]2C[C@H](C)[C@@]3(O)C=C(C(C)=O)[C@]4(CC3C[C@H]12)C(=O)O[C@H]1C[C@@H](C)C(CCC(C)=O)=CC[C@H]14 (some centres undefined)

>  <Cat>
no

$$$$

query: Outcome? CC1=C(C(=O)O)/C(=C\CO[C@@H]2O[C@H](CO)[C@@H](O)[C@H](O)[C@H]2O)C(OC(=O)/C=C/c2ccc(O)cc2)C1 (some centres undefined)
result: no

====

- Tested on: HeLa
- Experiment summary: Primary qHTS to identify gynecologic anti-cancer compounds using libraries of approved drugs and bioactive compounds (AID 1345084); note: nearly all actives have a fitted effect of over 55% in size
- Setup conditions: Gynecologic cancer cell panel viability, ATPlite luminescence, 48 h; series mostly up to 57.5 µM
Records with an inconclusive call do not appear. Calls of active or inactive are those of the source. The call rests on the fitted dose curve; in most records, active means well fitted cell-killing curve with a large enough effect; inconclusive means small, poorly fitted or top-dose-only effect, or effect the other way; inactive means flat fitted curve, though single readings scatter.
Allowed answers: 1.0 (active), 0.0 (inactive)

>  <Compound>
CN1CCc2nc(C(=O)N[C@@H]3C[C@@H](C(=O)N(C)C)CC[C@@H]3NC(=O)C(=O)Nc3ccc(Cl)cn3)sc2C1

>  <Measurement target>
HeLa

>  <Cat>
0.0

$$$$
>  <Compound>
O=C(Nc1ccc(S(=O)(=O)Nc2nccs2)cc1)C(c1ccccc1)c1ccccc1

>  <Measurement target>
HeLa

>  <Cat>
0.0

$$$$
>  <Compound>
CC1CCN(C(=O)CC#N)CC1N(C)c1ncnc2[nH]ccc12 (configuration not stated)

>  <Measurement target>
HeLa

>  <Cat>
0.0

$$$$

query: Outcome? O=C(CN1C(=O)C2(CCCC2)NCC1c1cc(F)cc(F)c1)Nc1ccc2c(c1)CC1(C2)C(=O)Nc2ncccc21 (configuration not stated)
result: 0.0

query: Outcome? O=C1CCC(=O)N(O)CCCCCNC(=O)CCC(=O)N(O)CCOCCNC(=O)CCC(=O)N(O)CCCCCN1
result: 0.0

query: Outcome? Oc1ccc2nc(CN3CCC(Cc4ccccc4F)CC3)[nH]c2c1
result: 0.0

query: Outcome? Cc1cc(OCc2nc(-c3ccccc3Cl)cs2)ccc1OCC(=O)O
result: 0.0

query: Outcome? C#CC[C@H](c1nc2cc(Cl)ccc2c(=O)n1Nc1ccccc1)N(CCCN)C(=O)c1cccc(Cl)c1F
result: 1.0

====

- Experiment summary: Tertiary RLuc qRT-PCR qHTS assay for Zika virus inhibitors (AID 1347169); note: nearly all actives have a fitted effect of over 55% in size
- Setup conditions: infected Vero cells, reporter luminescence, 48-72 h; series mostly up to 26.6 µM
Records with an inconclusive call do not appear. Active and inactive are the calls of the source. Calls come from the whole dose curve; as a rule, active = well fitted inhibition curve with a large enough effect; inconclusive = small, poorly fitted or top-dose-only effect; inactive = no such curve, though single readings can be large or run the other way.
Allowed answers: Yes = active, No = inactive

>  <Compound>
COc1ccc(Cl)c(Nc2nc3ccccc3nc2NS(=O)(=O)c2cccc(NC(=O)C(C)(C)N)c2)c1

>  <Cat>
Yes

$$$$
>  <Compound>
Cc1cc(=O)oc2c(C=O)c(O)ccc12

>  <Cat>
No

$$$$
>  <Compound>
C=C1C(=O)O[C@H]2C1[C@H](OC(=O)/C(=C/CO)COC(=O)/C(C)=C/CO)CC(=C)[C@@H]1CC(=O)[C@@H](C)[C@@H]12 (stereo partly specified)

>  <Cat>
No

$$$$
>  <Compound>
O=[N+]([O-])c1cccc2[nH]c(CNc3nc(N4CCOCC4)nc4c3ncn4-c3ccsc3)nc12

>  <Cat>
Yes

$$$$
>  <Compound>
C=C[C@H]1[C@H](O[C@@H]2O[C@H](CO)[C@@H](O)[C@H](O)[C@H]2O)OC=C(C(=O)OC)[C@H]1CCOC(=O)c1cc(O)c(O)c(O)c1

>  <Cat>
No

$$$$
>  <Compound>
O=C(O)/C=C/c1ccc(-c2ccc(O)c(C34CC5CC(CC(C5)C3)C4)c2)cc1

>  <Cat>
Yes

$$$$
>  <Compound>
CC(C)CC(=O)OC1OC=C(CO[C@@H]2O[C@H](CO)[C@@H](O)[C@H](O)[C@H]2O)C2CC(O)C(O)(CO)C12 (stereo partly specified)

>  <Cat>
No

$$$$
>  <Compound>
C=CC/C=C\C/C=C\CCCCCCCc1cccc(O)c1C(=O)O

>  <Cat>
No

$$$$

query: Outcome? O=S(=O)(c1ccccc1)c1cnc2c(N3CCNCC3)cccc2c1
result: No

query: Outcome? CC1(C)CC[C@]2(C(=O)O)CC[C@]3(C)C(=CCC4[C@@]5(C)C[C@@H](O)[C@H](O)C(C)(C)C5CC[C@]43C)C2C1 (stereo partly specified)
result: Yes

query: Outcome? CC(C)(C)Nc1nc2cc(Cl)c(Cl)cc2nc1S(C)(=O)=O
result: Yes
